- Tested on: Noggin (protein binding on small-molecule microarray)
- procedure details: small molecules binding Noggin protein – biochemical, 635/667 nm fluorescence, primary screen (AID 1095);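 note: score merges 667 nm feature fluorescence with signal to noise over triplicate slides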
- run parameters: 635 nm fluorescence, higher = more signal
readout type: composite z-score

- COc1ccc([Si](C)(C)[C@@H]2[C@@H](CCO)O[C@]3(C(=O)N(Cc4ccccc4)c4ccc(N5CCCCC5=O)cc43)[C@H]2C)cc1: 0.901
- CN(C)C(=O)[C@@]1(CCS(=O)(=O)c2ccccc2)N=C(c2ccc(OCCCO)cc2)O[C@H]1c1ccccc1CN=[N+]=[N-]: 1.66
- CCCCC(=C=CC[C@H](O)c1ccccc1OCCO)C[C@H](O)c1ccccn1: 0.939
- O=C1C2C=CC(C(O)c3ccc(Br)cc3)N(Nc3ccccc3)C2C(=O)N1c1ccccc1 (configuration not stated): -0.325
- COc1ccc([Si](C)(C)[C@H]2[C@H](CC(=O)N3CCC[C@H]3CO)O[C@@]3(C(=O)N(Cc4ccc(N5C(=O)c6cccc7cccc5c67)cc4)c4ccccc43)[C@@H]2C)cc1: 1.11
- COC(=O)c1ccc(OC)c(/C=C\CC(CCc2ccccc2)OC(=O)c2ccncc2)c1 (configuration not stated): 1.88
- NC(=O)NCC#Cc1ccc2c(c1)[C@]1(C(=O)N2)[C@H](c2ccc(OCCO)cc2)N2[C@H](c3ccccc3)[C@H](c3ccccc3)OC(=O)[C@H]2[C@@H]1C(=O)N1CCCCCCC1: 1.88

Origin of values: PubChem BioAssay
